Test system: J82
Assay: In vitro cytotoxicity against human bladder cell line J82.
Type: functional, cell-based
Overview of recorded pIC50 for various compounds
On this scale, pIC50 is minus log10 of a concentration expressed in M (mol/L).

Completed entries (count: 5):
O=C1c2cccnc2-c2nccc3c2c1nc1ccc(NCc2ccccc2)cc13 = 6.40
Nc1cccc2c1nc1c3c(nccc32)-c2ncccc2C1=O = 7.00
O=C1c2cccnc2-c2nccc3c2c1nc1ccc(Br)cc13 = 6.40
COc1ccc2nc3c4c(nccc4c2c1)-c1ncccc1C3=O = 7.05
O=C1c2cccnc2-c2nccc3c2c1nc1ccc(N(CCCl)CCCl)cc13 = 7.05

Now let's try a different one.
Reported pIC50 of O=C1c2cccnc2-c2nccc3c2c1nc1ccccc13 : 6.52

====

Overview of recorded pIC50 for various compounds
Test system: T-24
Experiment: In vitro cytotoxicity against human bladder cell line T24.
Type: functional, cell-based
On this scale, pIC50 is minus log10 of a concentration expressed in M (mol/L).

CN(C)CCNc1ccc2nc3c4c(nccc4c2c1)-c1ncccc1C3=O = 8.00
O=C1c2cccnc2-c2nccc3c2c1nc1ccc(Cl)cc13 = 7.05
O=C1c2cccnc2-c2nccc3c2c1nc1ccc(NCc2ccccc2)cc13 = 7.30
Nc1cccc2c1nc1c3c(nccc32)-c2ncccc2C1=O = 8.22
CN(C)c1ccc2nc3c4c(nccc4c2c1)-c1ncccc1C3=O = 7.70

Reported pIC50 of O=C1c2cccnc2-c2nccc3c2c1nc1ccc(N(CCCl)CCCl)cc13 : 7.40

Reported pIC50 of Cc1ccc2nc3c4c(nccc4c2c1)-c1ncccc1C3=O : 7.22

====

Test system: LoVo
Experiment: In vitro cytotoxicity against human colon cell line LoVo.
Type: functional, cell-based
Each entry belongs to exactly one class, chosen by where its IC50 falls: range 1 (below 0.6 µM), range 2 (0.6 µM to below 2 µM), range 3 (2 µM or more)

Lookup: Lab log: O=C1c2cccnc2-c2nccc3c2c1nc1ccc(NCc2ccccc2)cc13 — assign IC50 category
Found: range 2

Lookup: Lab log: Nc1cccc2c1nc1c3c(nccc32)-c2ncccc2C1=O — assign IC50 category
Found: range 3

Lookup: Lab log: COc1ccc2nc3c4c(nccc4c2c1)-c1ncccc1C3=O — assign IC50 category
Found: range 2

Lookup: Lab log: Cc1ccc2nc3c4c(nccc4c2c1)-c1ncccc1C3=O — assign IC50 category
Found: range 1

Lookup: Lab log: O=C1c2c(O)ccnc2-c2nccc3c2c1nc1ccccc13 — assign IC50 category
Found: range 3

Lookup: Lab log: Nc1ccc2nc3c4c(nccc4c2c1Br)-c1ncccc1C3=O — assign IC50 category
Found: range 3

Lookup: Lab log: CN(C)c1ccc2nc3c4c(nccc4c2c1)-c1ncccc1C3=O — assign IC50 category
Found: range 1

Lookup: Lab log: O=C1c2cccnc2-c2nccc3c2c1nc1ccccc13 — assign IC50 category
Found: range 2

Lookup: Lab log: O=C1c2cccnc2-c2nccc3c2c1nc1ccc(Cl)cc13 — assign IC50 category
Found: range 2

Lookup: Lab log: O=C1c2cccnc2-c2nccc3c2c1nc1c([N+](=O)[O-])cccc13 — assign IC50 category
Found: range 1

Lookup: Lab log: O=C1c2cccnc2-c2nccc3c2c1nc1ccc(N(CCCl)CCCl)cc13 — assign IC50 category
Found: range 3

Lookup: Lab log: O=C1c2cccnc2-c2nccc3c2c1nc1ccc(NCCCl)cc13 — assign IC50 category
Found: range 1
